These data points were gathered from ChEMBL document CHEMBL3988442.

// Percent Effect lookup, one value per entry
# measured on: AMP-activated protein kinase, AMPK (Homo sapiens) (UniProt P54646+O43741+P54619+Q9UGJ0+Q9Y478+Q13131+Q9UGI9)
# assay protocol: AMP-dependent Kinase enzyme assay. An in vitro enzyme assay that detects ADP turnover that is directly proportional to AMPK activity. This uses naive AMPK that is activated during the assay with MK-8722
# Type: functional
# Parameters: scale not given: direction of the effect not stated beside the values
# measurement conditions: 30 µM
Dear colleague, please return just the value in %, with no unit written.

[[record]]
molecule = "CCCNC(=O)C(C)NC(=O)CCc1ccccc1Br (configuration not stated)"
readout_number = 3.58

[[record]]
molecule = "Cc1nn(C)c(N2CCOCC2)c1CNCc1ccnc(N(C)C)c1"
readout_number = -5.9

[[record]]
molecule = "Cc1nn(C)c(C)c1C1CCCN1C(=O)c1cc[nH]n1 (configuration not stated)"
readout_number = 5.29

[[record]]
molecule = "CC(C)Cc1cc(NC(=O)c2ccc(=O)[nH]n2)n(C)n1"
readout_number = -1.51

[[record]]
molecule = "Cn1ccnc1CNC1CCCN(Cc2noc(C3CC3)n2)C1 (configuration not stated)"
readout_number = -11.6


For reference, reported Percent Effect for Cc1ccc2c(ccn2CCC(=O)O)c1 stands at 0.269

For reference, reported Percent Effect for CCN(CC)Cc1cn2c(n1)CN(C(=O)c1cc(C)on1)CC2 stands at 5.86

For reference, reported Percent Effect for CC(=O)N(C)CC(=O)Nc1cccc(N2CCN(CC3CC3)CC2)c1 stands at -9.55

For reference, reported Percent Effect for Cc1ccc(C)c(NC(=O)Nc2c[nH]c(=O)[nH]c2=O)c1 stands at -1.87

For reference, reported Percent Effect for Cc1cc(CNC(=O)C2CCCCN2C(=O)OC(C)(C)C)no1 (configuration not stated) stands at -5.58

For reference, reported Percent Effect for CC(=O)Nc1nc(CN2CCOC(Cn3cc(C)cn3)C2)cs1 (configuration not stated) stands at 9.13

For reference, reported Percent Effect for CCc1nc(CN2CCCN(c3nccs3)CC2)no1 stands at -3.3
